Data credit: ChEMBL document CHEMBL3425420

target: Induced myeloid leukemia cell differentiation protein Mcl-1 (Homo sapiens, UniProt Q07820); experiment: Binding affinity to GST-tagged Mcl-1 (unknown origin) incubated for 60 mins by TR-FRET-binding affinity assay
Sequence (Q07820 whole entry): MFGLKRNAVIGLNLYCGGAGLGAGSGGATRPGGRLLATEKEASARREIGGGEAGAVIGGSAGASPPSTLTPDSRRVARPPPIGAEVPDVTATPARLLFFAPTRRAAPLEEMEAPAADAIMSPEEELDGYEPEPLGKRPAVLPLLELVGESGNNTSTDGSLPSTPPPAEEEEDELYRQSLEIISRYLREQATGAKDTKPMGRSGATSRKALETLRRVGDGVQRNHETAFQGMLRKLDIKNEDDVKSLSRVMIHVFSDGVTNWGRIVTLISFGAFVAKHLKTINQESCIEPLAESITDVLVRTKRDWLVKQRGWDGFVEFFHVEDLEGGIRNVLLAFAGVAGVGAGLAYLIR
ENDPOINT: Ki (nM)

                                        mol  observed_value
0  COCCCc1c(C(=O)O)n(CCN2CCOCC2)c2c(-c3c(C)nn(C)c3COc3ccc(N4CCN(S(=O)(=O)N(C)C)CC4)cc3)cccc12           0.454

###

// endpoint log10 Ki / system Apoptosis regulator Bcl-2 (Homo sapiens, UniProt P10415)
ENDPOINT: log10 Ki (log10 of the value in µM)

>>> df
                                   compound                           subject_of_test  endpoint  observed_value
0  Cc1cc(OCCCc2c(C(=O)O)n3c4c(cccc24)SCC3)ccc1Cl  Apoptosis regulator Bcl-2 (Homo sapiens, UniProt P10415)  log10 Ki            0.80
1  O=C(O)c1c(CCCOc2cccc3ccccc23)c2cccc3c2n1CCS3  Apoptosis regulator Bcl-2 (Homo sapiens, UniProt P10415)  log10 Ki            0.49
2  O=C(O)c1c(CCCOc2cccc3ccccc23)c2cccc3c2n1CCC[S+]3[O-] (stereo not drawn)  Apoptosis regulator Bcl-2 (Homo sapiens, UniProt P10415)  log10 Ki            1.20
3  Cc1cc(OCCCc2c(C(=O)O)n3c4c(cccc24)SCC3)cc(C)c1Cl  Apoptosis regulator Bcl-2 (Homo sapiens, UniProt P10415)  log10 Ki            0.36
4  O=C(O)c1c(CCCOc2cccc3ccccc23)c2cccc3c2n1CCCS3  Apoptosis regulator Bcl-2 (Homo sapiens, UniProt P10415)  log10 Ki            1.00
5  O=C(O)c1c(CCCOc2ccc(Cl)c3ccccc23)c2cccc3c2n1CCS3  Apoptosis regulator Bcl-2 (Homo sapiens, UniProt P10415)  log10 Ki            0.04
6  O=C(O)c1c(CCCOc2ccc3c(c2)CCCC3)c2cccc3c2n1CCS3  Apoptosis regulator Bcl-2 (Homo sapiens, UniProt P10415)  log10 Ki            0.64
7  O=C(O)c1c(CCCOc2cccc3ccccc23)c2cccc3c2n1CCCS3(=O)=O  Apoptosis regulator Bcl-2 (Homo sapiens, UniProt P10415)  log10 Ki            1.07

###

target: Induced myeloid leukemia cell differentiation protein Mcl-1 (Homo sapiens); test: Displacement of FITC-Bak-BH3 peptide from Mcl-1 (unknown origin) incubated for 1.5 hrs by FPA competition assay
Reported Ki values are given for each entry in this list.
ENDPOINT: Ki

                                    molecule  endpoint  observed_value
 0  Cc1cc(OCCCc2c(C(=O)O)n3c4c(cccc24)SCC3)ccc1Cl        Ki          210 nM
 1  O=C(O)c1c(CCCOc2cccc3c2CCCC3)c2cccc3c2n1CCS3        Ki          150 nM
 2             Cc1c(C(=O)O)n2c3c(cccc13)OCC2        Ki        18000 nM
 3  O=C(O)c1c(CCOc2cccc3ccccc23)c2cccc3c2n1CCS3        Ki         3000 nM
 4  O=C(O)c1c(CCCOc2ccc3c(c2)CCCC3)c2cccc3c2n1CCS3        Ki          410 nM
 5  O=C(O)c1c(CCCOc2cccc3ccccc23)c2cccc3c2n1CCS3(=O)=O        Ki           88 nM
 6  O=C(O)c1c(CCCOc2cccc3ccccc23)c2cccc3c2n1CCCS3        Ki          170 nM
 7  O=C(O)c1c(CCCOc2cccc3ccccc23)c2cccc3c2n1CCC[S+]3[O-] (stereo unspecified)        Ki           74 nM
 8  O=C(O)c1c(CCCOc2cccc3ccccc23)c2cccc3c2n1CCC3        Ki          310 nM
 9             Cc1c(C(=O)O)n2c3c(cccc13)SCC2        Ki        18000 nM
10  Cc1cc(OCCCc2c(C(=O)O)n3c4c(cccc24)OCC3)cc(C)c1Cl        Ki           65 nM

###

molecular target: Bcl-2-like protein 1 (Homo sapiens); assay: Displacement of FITC-Bak-BH3 peptide from Bcl-xL (unknown origin) incubated for 1.5 hrs by FPA competition assay
Sequence (Q07817 whole entry): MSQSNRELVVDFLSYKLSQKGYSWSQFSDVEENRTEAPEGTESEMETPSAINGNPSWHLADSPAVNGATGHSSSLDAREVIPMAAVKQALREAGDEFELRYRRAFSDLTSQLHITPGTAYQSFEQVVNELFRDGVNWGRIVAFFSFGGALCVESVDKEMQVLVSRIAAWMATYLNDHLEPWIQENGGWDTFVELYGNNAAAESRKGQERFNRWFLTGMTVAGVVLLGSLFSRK
ENDPOINT: Ki

In [3]: df
Out[3]:
                                    molecule                      subject_of_test  observed_value
 0  O=C(O)c1c(CCCOc2cccc3ccccc23)c2cccc3c2n1CCC[S+]3[O-] (configuration not stated)  Bcl-2-like protein 1 (Homo sapiens)         > 20 µM
 1  O=C(O)c1c(CCCOc2cccc3ccccc23)c2cccc3c2n1CCC3  Bcl-2-like protein 1 (Homo sapiens)         > 20 µM
 2  Cc1cc(OCCCc2c(C(=O)O)n3c4c(cccc24)SCC3)ccc1Cl  Bcl-2-like protein 1 (Homo sapiens)         > 20 µM
 3  Cc1cc(OCCCc2c(C(=O)O)n3c4c(c(Cl)ccc24)OCC3)cc(C)c1Cl  Bcl-2-like protein 1 (Homo sapiens)         > 20 µM
 4  O=C(O)c1c(CCCOc2cccc3ccccc23)c2cccc3c2n1CCS3(=O)=O  Bcl-2-like protein 1 (Homo sapiens)         > 20 µM
 5  Cc1cc(OCCCc2c(C(=O)O)n3c4c(cccc24)SCCC3)cc(C)c1Cl  Bcl-2-like protein 1 (Homo sapiens)         > 20 µM
 6  O=C(O)c1c(CCOc2cccc3ccccc23)c2cccc3c2n1CCO3  Bcl-2-like protein 1 (Homo sapiens)         12.7 µM
 7  O=C(O)c1c(CCCOc2ccc(Cl)c3ccccc23)c2cccc3c2n1CCS3  Bcl-2-like protein 1 (Homo sapiens)          4.7 µM
 8  Cc1cc(OCCCc2c(C(=O)O)n3c4c(cccc24)SCC3)cc(C)c1Cl  Bcl-2-like protein 1 (Homo sapiens)         > 20 µM
 9  O=C(O)c1c(CCCOc2cccc3ccccc23)c2cccc3c2n1CCO3  Bcl-2-like protein 1 (Homo sapiens)          1.9 µM
10  Cc1cc(OCCCc2c(C(=O)O)n3c4c(c(Cl)ccc24)CCC3)cc(C)c1Cl  Bcl-2-like protein 1 (Homo sapiens)          5.2 µM
11  O=C(O)c1c(CCCOc2cccc3ccccc23)c2cccc3c2n1CCCS3(=O)=O  Bcl-2-like protein 1 (Homo sapiens)         > 20 µM
12  O=C(O)c1c(CCCOc2cccc3ccccc23)c2cccc3c2n1CCCS3  Bcl-2-like protein 1 (Homo sapiens)          7.4 µM
13  O=C(O)c1c(CCCOc2cccc3c2CCCC3)c2cccc3c2n1CCS3  Bcl-2-like protein 1 (Homo sapiens)            3 µM
14  O=C(O)c1c(CCOc2cccc3ccccc23)c2cccc3c2n1CCC3  Bcl-2-like protein 1 (Homo sapiens)         > 20 µM
15  O=C(O)c1c(CCCOc2ccc3c(c2)CCCC3)c2cccc3c2n1CCS3  Bcl-2-like protein 1 (Homo sapiens)         > 20 µM
16  O=C(O)c1c(CCCOc2cccc3ccccc23)c2cccc3c2n1CCS3  Bcl-2-like protein 1 (Homo sapiens)         > 20 µM
